# reported growth inhibition; entries follow
assay: OD615 S. cerevisiae growth inhibition, permissive medium, pilot counter-assay, permissive growth control for S. cerevisiae lifespan shortening project (AID 705); conditions: OD615, 24 h, at 10 µM, hits give high values
Give the value, in units of %, as a plain number.

The examples below pair each entry with its known result.
Incoming: Using the record for O=C(Cc1cc(=O)[nH]c(=O)[nH]1)N1CCN(C(=O)c2ccco2)CC1 , report its growth inhibition.
Outgoing: -10.2

Incoming: Using the record for COc1ccc(-c2c(C)oc3c(CN4CCCCC4C)c(O)ccc3c2=O)cc1OC (configuration not stated) , report its growth inhibition.
Outgoing: -13.7

Incoming: Using the record for Cc1nc2ccccc2n1-c1ccccc1 , report its growth inhibition.
Outgoing: -0.46

---
Incoming: Using the record for CC(=O)N1CCc2c(sc(NC(=O)CN3C(=O)CCC3=O)c2C(N)=O)C1 , report its growth inhibition.
Outgoing: -11.6

Incoming: Using the record for Cc1cc(C(=O)Nc2ccc3c(c2)OCCO3)co1 , report its growth inhibition.
Outgoing: -4.03

Incoming: Using the record for CCOC(=O)C1=C(C)N=c2s/c(=C\C(=O)OC)c(=O)n2C1c1ccc(OC)cc1 (configuration not stated) , report its growth inhibition.
Outgoing: -2.88

----------
assay: Restrictive medium S. cerevisiae growth inhibition, OD615, pilot screen of yeast lifespan reduction project, restrictive growth control (AID 706); conditions: OD615, 48 h, at 10 µM, hits give high values;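 also: modified DeaD lifespan yeast strain shifted to restrictive glucose medium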
# reported growth inhibition; entries follow
Give the value, in units of %, as a plain number.

The examples below pair each entry with its known result.
Incoming: Using the record for CCCCN(CC)CCNC(=O)Cn1cnc2sc(C)c(S(=O)(=O)N3CCOCC3)c2c1=O , report its growth inhibition.
Outgoing: 0.72

Incoming: Using the record for O=C1c2ccccc2C(=O)C1c1ccncc1 , report its growth inhibition.
Outgoing: -1.51

Incoming: Using the record for COc1cccc(C(=O)Nc2nnc(-c3ccc(F)cc3)o2)c1 , report its growth inhibition.
Outgoing: -0.875

Incoming: Using the record for O=C(NCc1ccc(Cl)c(Cl)c1)c1ccco1 , report its growth inhibition.
Outgoing: -2.23

Incoming: Using the record for Cn1c(SCC(=O)Nc2ccccc2F)nnc1-c1cccnc1 , report its growth inhibition.
Outgoing: -5.78

---
Incoming: Using the record for Cc1onc(-c2ccccc2Cl)c1C(=O)NCc1ccc2c(c1)cc(C)n2C , report its growth inhibition.
Outgoing: -12.7

Incoming: Using the record for CCCCN(C)C(=O)c1ccc2c(c1)N(CC)C(=O)c1ccccc1S2(=O)=O , report its growth inhibition.
Outgoing: 3.19

Incoming: Using the record for COC(=O)CSC1=C(C#N)C(c2ccc(C(C)C)cc2)CC(=O)N1 (stereo not drawn) , report its growth inhibition.
Outgoing: -3.29

Incoming: Using the record for CC(=O)c1ccc(OCC(C)C)c(CC(C(N)=O)C(N)=O)c1 , report its growth inhibition.
Outgoing: -5.6

Incoming: Using the record for COC(=O)c1ccc(Cl)c(NC(=O)NC2CCCCC2)c1 , report its growth inhibition.
Outgoing: -5.54

Incoming: Using the record for COCCn1c(=NC(=O)CSC(C)=O)sc2cc(OC)ccc21 , report its growth inhibition.
Outgoing: 18.1

Incoming: Using the record for Cc1ccccc1Cn1c(CN2CCN(C(=O)c3ccco3)CC2)nc2c1c(=O)n(C)c(=O)n2C , report its growth inhibition.
Outgoing: -4.52

Incoming: Using the record for COc1ccc(-c2nnc(SCC(=O)NC3CCCCC3)o2)cc1OC , report its growth inhibition.
Outgoing: 1.43

Incoming: Using the record for O=c1[nH]c(NC2CCCCC2)nnc1Cc1ccccc1 , report its growth inhibition.
Outgoing: -5.11

Incoming: Using the record for CCCn1c(CN2CCN(C(=O)OCC)CC2)nc2c1c(=O)n(C)c(=O)n2C , report its growth inhibition.
Outgoing: 1.72

Incoming: Using the record for CCn1c(SCC(=O)NCC2CCCO2)nc2c(c1=O)SC(C)C2 (stereo not drawn) , report its growth inhibition.
Outgoing: -29.9

Incoming: Using the record for CCOC(=O)c1c(C)nc(-c2ccccc2)nc1NC(C)=O , report its growth inhibition.
Outgoing: -5.61

Incoming: Using the record for COc1ccc(C2(CNC(C)=O)CCOCC2)cc1OC , report its growth inhibition.
Outgoing: -2.29

Incoming: Using the record for CCOC(=O)c1ccc(NS(=O)(=O)c2cc(-c3nnnn3CC)ccc2OC)cc1 , report its growth inhibition.
Outgoing: -5.39

Incoming: Using the record for COc1ccc(CCNC(=O)CCn2c(=O)oc3ccccc32)cc1OC , report its growth inhibition.
Outgoing: -12.8

Incoming: Using the record for COc1ccccc1C(=O)NCc1ccc2c(c1)OCO2 , report its growth inhibition.
Outgoing: -10.3

Incoming: Using the record for CSc1nc2sc3c(c2c(=O)n1C)CCCC3 , report its growth inhibition.
Outgoing: 8.89

Incoming: Using the record for CC(=O)Nc1nnc(SCc2cccc(F)c2)s1 , report its growth inhibition.
Outgoing: -1.06

Incoming: Using the record for CCOC(=O)C1CCN(C(=O)Cn2cc3c(n2)CCC(C)C3)CC1 (stereo not drawn) , report its growth inhibition.
Outgoing: -0.07

Incoming: Using the record for O=C(COC(=O)c1ccc(S(=O)(=O)N2CCOCC2)cc1)NC1CCCCCC1 , report its growth inhibition.
Outgoing: -3.04

Incoming: Using the record for COc1ccc(C2CC(C(F)(F)F)n3ncc(C(=O)O)c3N2)cc1OC (stereo not drawn) , report its growth inhibition.
Outgoing: -3

Incoming: Using the record for Cc1occc1-c1nc(-c2ccccn2)no1 , report its growth inhibition.
Outgoing: 3.22

----------
test: OD615 S. cerevisiae growth inhibition, permissive medium, pilot counter-assay, permissive growth control for S. cerevisiae lifespan shortening project (AID 705); details: OD615, 24 h, at 10 µM, hits give high values
# reported growth inhibition; entries follow
Give the value, in units of %, as a plain number.

Incoming: Using the record for Cc1cc(Nc2ccc(C(C)C)cc2)n2ncnc2n1 , report its growth inhibition.
Outgoing: -6.6

Incoming: Using the record for Cn1c(=O)oc2cc(S(=O)(=O)N3CCC(C(=O)N4CCN(c5ccccc5)CC4)CC3)ccc21 , report its growth inhibition.
Outgoing: 0.31

Incoming: Using the record for CCOC(=O)C1CCCN(C(=O)CN(c2ccc(OC)cc2)S(=O)(=O)c2c(C)noc2C)C1 (stereo unspecified) , report its growth inhibition.
Outgoing: -7.31

Incoming: Using the record for CCCCN(C)c1nc(-c2ccco2)c2c(c1C#N)CC(C)(C)OC2 , report its growth inhibition.
Outgoing: -9.48

Incoming: Using the record for O=C(Cn1cc2c(n1)CCCC2)N1CCCC1 , report its growth inhibition.
Outgoing: -1.5

---
Incoming: Using the record for CCN1CCN(C(=O)CS(=O)(=O)Cc2nc(-c3ccc(C)cc3)oc2C)CC1 , report its growth inhibition.
Outgoing: -5.05

Incoming: Using the record for CC1(C)Cc2c(c(N3CCOCC3)nc3sc(C(=O)N4CCCCC4)c(N)c23)CO1 , report its growth inhibition.
Outgoing: 2.35

Incoming: Using the record for Cn1c(=O)c2c(nc(N3CCCCCC3)n2CCSc2nc3ccccc3o2)n(C)c1=O , report its growth inhibition.
Outgoing: -6.38

Incoming: Using the record for Cc1sc2nc(SCC(=O)N3CCOCC3)[nH]c(=O)c2c1C , report its growth inhibition.
Outgoing: -1.58

Incoming: Using the record for Cc1cc(C(=O)CN2CC(C)OC(C)C2)c(C)n1-c1ccccc1 (stereo unspecified) , report its growth inhibition.
Outgoing: 0.61

Incoming: Using the record for Cc1nn(C)c(C)c1S(=O)(=O)N(CC(=O)Nc1nccs1)c1ccc(C(C)C)cc1 , report its growth inhibition.
Outgoing: -0.91

Incoming: Using the record for COC(=O)N1CC(C)N(C(=O)OC)CC1C (stereo unspecified) , report its growth inhibition.
Outgoing: -8.79

Incoming: Using the record for CCCCn1c(CNC(=O)C(C)(C)C)nc2ccccc21 , report its growth inhibition.
Outgoing: -11.1

----------
assay: OD615 S. cerevisiae growth inhibition, permissive medium, pilot counter-assay, permissive growth control for S. cerevisiae lifespan shortening project (AID 705); conditions: OD615, 24 h, at 10 µM, hits give high values
reported_property: growth inhibition (%)
Give the value, in units of %, as a plain number.

Incoming: Using the record for CC(C)c1cc(C(=O)Nc2ccc3c(c2)OCO3)no1 , report its growth inhibition.
Outgoing: -13.7

Incoming: Using the record for COCCNC(=O)CS(=O)(=O)Cc1nc(-c2ccc(C)cc2)oc1C , report its growth inhibition.
Outgoing: -7.2

Incoming: Using the record for CS(=O)(=O)Nc1ccc2c3c(cccc13)CC2 , report its growth inhibition.
Outgoing: -15.4

Incoming: Using the record for Cc1cc(Nc2ccc(Br)cc2)n2nc(C)nc2n1 , report its growth inhibition.
Outgoing: -14

Incoming: Using the record for Cn1c(C(=O)NC2CCCC2)cc2c(=O)n(C)c3ccccc3c21 , report its growth inhibition.
Outgoing: -12.6

---
Incoming: Using the record for O=C(NCC1CCCO1)c1ccc2c(c1)N(Cc1ccccc1)C(=O)CS2=O (centres undefined) , report its growth inhibition.
Outgoing: -1.31

Incoming: Using the record for CCCC(=O)C1=C(O)C(C(=O)OC)C(C)(C)CC1=Nc1ccncc1 (centres undefined) , report its growth inhibition.
Outgoing: 0.755

Incoming: Using the record for CN(C)c1ccc(C2C3C(=O)NC(=O)C3ON2c2ccc(Cl)cc2)cc1 (centres undefined) , report its growth inhibition.
Outgoing: -0.19

Incoming: Using the record for COC(=O)c1ccc2c(=O)n3c(nc2c1)SCC(c1ccccc1)=N3 , report its growth inhibition.
Outgoing: 2.69

Incoming: Using the record for COCCNC(=O)CN1C(=O)CC(C)(C)S(=O)(=O)c2ccccc21 , report its growth inhibition.
Outgoing: -2.02

Incoming: Using the record for O=C(C1CCCN(S(=O)(=O)c2cccc3cccnc23)C1)N1CCc2ccccc21 (centres undefined) , report its growth inhibition.
Outgoing: -2.7

Incoming: Using the record for CCCCn1c(C(C)NC(=O)CC)nc2ccccc21 (centres undefined) , report its growth inhibition.
Outgoing: -12.9

Incoming: Using the record for CCc1c(C)sc(NC(=O)c2cc(C)no2)c1C#N , report its growth inhibition.
Outgoing: 1.33

Incoming: Using the record for C=C(C)Cn1c(COc2ccccc2)nnc1SCC(=O)O , report its growth inhibition.
Outgoing: -9.65
